# Test system: THRa homodimer (NR concentration 90 nM)
# PROCEDURE_SUMMARY: PBM binding z-score (relative to random genomic background probes); higher = stronger binding; sequences stand for … in GC…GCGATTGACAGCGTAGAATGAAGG
Criterion: PBM binding z-score meeting or surpassing 0.7. Met: met. Not met: not met.

Task: Decide: PBM binding z-score of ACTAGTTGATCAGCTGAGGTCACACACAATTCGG >= 0.7?
Output: met

Task: Decide: PBM binding z-score of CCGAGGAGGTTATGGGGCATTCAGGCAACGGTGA >= 0.7?
Output: not met

Task: Decide: PBM binding z-score of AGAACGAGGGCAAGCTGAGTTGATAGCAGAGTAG >= 0.7?
Output: not met

Task: Decide: PBM binding z-score of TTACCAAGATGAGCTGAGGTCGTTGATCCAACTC >= 0.7?
Output: met

Task: Decide: PBM binding z-score of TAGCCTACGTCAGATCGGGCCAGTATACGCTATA >= 0.7?
Output: not met

Task: Decide: PBM binding z-score of CCTAGTGGGCCATCAGGTCATTGATATCAACGTT >= 0.7?
Output: met

Task: Decide: PBM binding z-score of CGAACTAAGTCAAGGACAGTGAATCTCCGCACGC >= 0.7?
Output: met

Task: Decide: PBM binding z-score of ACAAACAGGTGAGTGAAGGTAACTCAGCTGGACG >= 0.7?
Output: not met

Task: Decide: PBM binding z-score of ACTAGCAGGCCAAGGGTCAGTCAAGATTAGTCCG >= 0.7?
Output: not met

Task: Decide: PBM binding z-score of TCTCGGAGGACACGGAAGGTCAGAGCTCGACATC >= 0.7?
Output: met

Task: Decide: PBM binding z-score of TCTCGGAGGACACGAAGGACAGAGCTTTCCAGAG >= 0.7?
Output: not met

Task: Decide: PBM binding z-score of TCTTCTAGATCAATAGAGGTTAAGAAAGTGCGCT >= 0.7?
Output: not met

Task: Decide: PBM binding z-score of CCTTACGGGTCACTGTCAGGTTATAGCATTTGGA >= 0.7?
Output: met

Task: Decide: PBM binding z-score of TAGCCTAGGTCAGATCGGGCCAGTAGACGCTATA >= 0.7?
Output: not met

Task: Decide: PBM binding z-score of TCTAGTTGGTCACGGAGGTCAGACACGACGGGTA >= 0.7?
Output: met

Task: Decide: PBM binding z-score of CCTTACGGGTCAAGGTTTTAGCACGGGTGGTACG >= 0.7?
Output: not met

Task: Decide: PBM binding z-score of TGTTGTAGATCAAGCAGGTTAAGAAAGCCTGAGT >= 0.7?
Output: not met

Task: Decide: PBM binding z-score of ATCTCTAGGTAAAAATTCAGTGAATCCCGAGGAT >= 0.7?
Output: not met

Task: Decide: PBM binding z-score of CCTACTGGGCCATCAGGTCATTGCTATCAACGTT >= 0.7?
Output: met

Task: Decide: PBM binding z-score of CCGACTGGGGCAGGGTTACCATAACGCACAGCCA >= 0.7?
Output: not met

Task: Decide: PBM binding z-score of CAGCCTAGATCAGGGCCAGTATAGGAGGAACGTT >= 0.7?
Output: not met

Task: Decide: PBM binding z-score of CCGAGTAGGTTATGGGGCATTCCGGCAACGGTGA >= 0.7?
Output: not met

Task: Decide: PBM binding z-score of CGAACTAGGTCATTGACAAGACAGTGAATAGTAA >= 0.7?
Output: not met

Task: Decide: PBM binding z-score of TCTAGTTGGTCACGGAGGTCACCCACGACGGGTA >= 0.7?
Output: met

Task: Decide: PBM binding z-score of ATATGTAGGTTAGCTAGGGTCATTCAGACTAGGC >= 0.7?
Output: met

Task: Decide: PBM binding z-score of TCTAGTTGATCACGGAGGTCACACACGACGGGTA >= 0.7?
Output: met

Task: Decide: PBM binding z-score of TCAATGAGGTTAAAGATCAGGGAACGTGGCGTCG >= 0.7?
Output: not met

Task: Decide: PBM binding z-score of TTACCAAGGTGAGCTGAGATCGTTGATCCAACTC >= 0.7?
Output: not met

Task: Decide: PBM binding z-score of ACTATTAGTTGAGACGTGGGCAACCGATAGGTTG >= 0.7?
Output: not met

Task: Decide: PBM binding z-score of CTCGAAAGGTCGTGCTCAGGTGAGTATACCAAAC >= 0.7?
Output: met

Task: Decide: PBM binding z-score of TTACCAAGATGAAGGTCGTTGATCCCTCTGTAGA >= 0.7?
Output: not met

Task: Decide: PBM binding z-score of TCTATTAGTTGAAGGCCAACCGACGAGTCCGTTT >= 0.7?
Output: not met

Task: Decide: PBM binding z-score of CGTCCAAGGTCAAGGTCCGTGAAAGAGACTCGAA >= 0.7?
Output: met

Task: Decide: PBM binding z-score of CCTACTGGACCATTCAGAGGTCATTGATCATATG >= 0.7?
Output: met

Task: Decide: PBM binding z-score of TCAGACATGTGAAGGTAACTCAGGTACGCAGTCG >= 0.7?
Output: not met

Task: Decide: PBM binding z-score of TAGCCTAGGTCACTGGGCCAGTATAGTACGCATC >= 0.7?
Output: met

Task: Decide: PBM binding z-score of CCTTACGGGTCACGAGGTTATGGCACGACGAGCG >= 0.7?
Output: met

Task: Decide: PBM binding z-score of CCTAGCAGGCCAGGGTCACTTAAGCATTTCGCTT >= 0.7?
Output: met

Task: Decide: PBM binding z-score of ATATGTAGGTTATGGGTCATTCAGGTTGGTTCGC >= 0.7?
Output: met

Task: Decide: PBM binding z-score of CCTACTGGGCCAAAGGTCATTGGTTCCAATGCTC >= 0.7?
Output: met

Task: Decide: PBM binding z-score of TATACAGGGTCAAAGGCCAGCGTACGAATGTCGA >= 0.7?
Output: met

Task: Decide: PBM binding z-score of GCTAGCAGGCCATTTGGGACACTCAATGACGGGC >= 0.7?
Output: not met

Task: Decide: PBM binding z-score of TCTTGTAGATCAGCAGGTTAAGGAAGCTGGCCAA >= 0.7?
Output: not met

Task: Decide: PBM binding z-score of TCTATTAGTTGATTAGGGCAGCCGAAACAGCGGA >= 0.7?
Output: not met

Task: Decide: PBM binding z-score of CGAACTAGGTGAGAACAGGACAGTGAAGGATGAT >= 0.7?
Output: not met

Task: Decide: PBM binding z-score of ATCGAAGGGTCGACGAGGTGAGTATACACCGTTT >= 0.7?
Output: not met

* * *

# Test system: PPARg DBDmut IVT, anti-PPARg (DBD mutation: PPARg1 K132A/R137A, NR concentration 270 nM)
# PROCEDURE_SUMMARY: PBM binding z-score (relative to random genomic background probes); higher = stronger binding; sequences stand for … in GC…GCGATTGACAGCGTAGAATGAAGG
Binning rule for recorded PBM binding z-score: Low (below -0.4), Medium (-0.4 to below 0.4), High (0.4 or more)

Task: Category of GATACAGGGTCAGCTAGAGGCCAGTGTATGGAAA :
Output: Medium

Task: Category of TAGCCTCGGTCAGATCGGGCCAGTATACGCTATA :
Output: Low

Task: Category of TAGCCTAGGTCATTCAGGGGCCTGTATAGAAAGC :
Output: Medium

Task: Category of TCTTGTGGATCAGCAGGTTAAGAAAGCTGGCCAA :
Output: Medium

Task: Category of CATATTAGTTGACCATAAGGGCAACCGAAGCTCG :
Output: High

Task: Category of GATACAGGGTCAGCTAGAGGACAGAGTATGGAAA :
Output: Medium

Task: Category of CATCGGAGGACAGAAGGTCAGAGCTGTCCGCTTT :
Output: Low

Task: Category of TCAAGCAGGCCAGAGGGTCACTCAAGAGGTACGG :
Output: Low

Task: Category of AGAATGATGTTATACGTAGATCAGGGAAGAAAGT :
Output: High

Task: Category of GATACAGGGTCAAGGCCAGACTACGCGTATTGAT :
Output: High

Task: Category of CGAACGAGGGCATTAGTTGATAGCAAATGCCGAT :
Output: Medium

Task: Category of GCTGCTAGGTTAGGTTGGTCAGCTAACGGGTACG :
Output: Low

Task: Category of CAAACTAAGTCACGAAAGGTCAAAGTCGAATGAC :
Output: High

Task: Category of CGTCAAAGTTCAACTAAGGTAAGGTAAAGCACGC :
Output: High
